target: Rap guanine nucleotide exchange factor 3 (Homo sapiens); assay: Counterscreen qHTS for agonist of cAMP-regulated guanine nucleotide exchange factor 3 (EPAC1) (AID 1645889); details: EPAC1 Rap1B-BODIPY-GDP exchange, fluorescence; series mostly up to 154 µM; also: % of control where 0% means no effect; nearly all actives have a fitted effect of over 40% in size
Records with an inconclusive call do not appear. The source made the active and inactive calls. Calls follow the shape of the dose curve; as a rule, active = well fitted activation curve with a large enough effect; inconclusive = small, poorly fitted or top-dose-only effect, or another doubt; inactive = no such curve, though single readings can be large or run the other way.
measuredParameter: activation

compound: Cn1cc(S(=O)(=O)Nc2cccc(F)c2)c(=O)n(C)c1=O
targetOrTestSystem: Rap guanine nucleotide exchange factor 3 (Homo sapiens)
activation: -7.11% [at 30.8 µM] (inactive)

compound: COCCCn1c(=N)c(C(=O)NCc2cccnc2)cc2c(=O)n3cccc(C)c3nc21
targetOrTestSystem: Rap guanine nucleotide exchange factor 3 (Homo sapiens)
activation: inactive

compound: CCN(CC)CCOC(=O)c1ccc(NC(=O)c2nn(-c3ccc(C)cc3)c(=O)c3c2c2ccccc2n3C)cc1
targetOrTestSystem: Rap guanine nucleotide exchange factor 3 (Homo sapiens)
activation: inactive

compound: Cc1ccc(S(=O)(=O)N2[C@@H](c3ccc(C(C)(C)C)cc3)C(C(=O)O)=CC[C@H]2c2ccc(Cl)cc2)cc1
targetOrTestSystem: Rap guanine nucleotide exchange factor 3 (Homo sapiens)
activation: inactive

compound: O=C(Nc1ccccc1Cl)/C(Cl)=C(\Cl)S(=O)c1ccccc1 (stereo not given)
targetOrTestSystem: Rap guanine nucleotide exchange factor 3 (Homo sapiens)
activation: inactive

May I ask what activation has been recorded for O=[N+]([O-])c1ccc(C=NNc2ccc(S(=O)(=O)O)cc2)cc1 ?
6.23% [at 30.8 µM] (inactive)

Ok, now COc1ccc(-c2ccc(C(=O)NCCN3CCOCC3)c3occc23)c(C)c1
inactive

Ok, now O=C(O)Cc1ccc(N=Nc2c(O)c(C(=O)O)cc3ccccc23)cc1
inactive

Ok, now O=C(CSc1nc(-c2ccc(F)cc2)nc2ccc(F)cc12)Nc1cccc(C(=O)O)c1
inactive

Ok, now COc1cc(/C=C2\SC(=S)N(NC(=O)c3ccc(O)c(OC)c3)C2=O)ccc1O
inactive

----------
target: Rap guanine nucleotide exchange factor 4 (Homo sapiens); assay: Confirmatory qHTS for antagonist of cAMP-regulated guanine nucleotide exchange factor 4 (EPAC2) (AID 1645885); conditions: EPAC2 Rap1B-BODIPY-GDP exchange fluorescence, biochemical; series mostly up to 12.7 µM; also: nearly all actives have a fitted effect of over 25% in size; also: potency is read from the fitted curve at half-maximal effect
Results filed as inconclusive are left out. Activity calls are given as the source filed them. Calls come from the whole dose curve; as a rule, active = well fitted inhibition curve with a large enough effect; inconclusive = small, poorly fitted or top-dose-only effect; inactive = no such curve, though single readings can be large or run the other way.
measuredParameter: Potency

Worked set:
molecule: Cc1cc(Br)cc(C=Nc2ccc(N3CCOCC3)cc2)c1O
Potency: inactive
//
molecule: CC(C)(C)C1COc2ccccc2N1C(=O)c1ccccc1Cl (stereo unspecified)
Potency: 30.1 µM (active)
//
molecule: Cc1ccc(NC(=O)CC2S/C(=N/N=C3\CCCc4ccccc43)NC2=O)cc1 (stereo unspecified)
Potency: inactive
//
molecule: CCCc1nc2ccc(C(=O)OC)cn2c1Cc1ccc(C)cc1
Potency: inactive
//
molecule: N/C(CSc1nc(-c2ccccc2)c(-c2ccccc2)o1)=N\O
Potency: 16.9 µM (active)

Shift focus to the following entry.
May I ask what Potency has been recorded for Cc1cccn2cc(CCNC(=O)c3ccco3)nc12 ?
inactive

----------
molecular target: Rap guanine nucleotide exchange factor 3 (Homo sapiens) (UniProt O95398); assay: Counterscreen qHTS for antagonist of cAMP-regulated guanine nucleotide exchange factor 3 (EPAC1) (AID 1645888); conditions: Rap1B-BODIPY-GDP nucleotide exchange, fluorescence; series mostly up to 154 µM;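 also: fluorescence loss as bound BODIPY-GDP is released from Rap1B; % of control where 0% means no effect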
Sequence (O95398 whole entry, looked up): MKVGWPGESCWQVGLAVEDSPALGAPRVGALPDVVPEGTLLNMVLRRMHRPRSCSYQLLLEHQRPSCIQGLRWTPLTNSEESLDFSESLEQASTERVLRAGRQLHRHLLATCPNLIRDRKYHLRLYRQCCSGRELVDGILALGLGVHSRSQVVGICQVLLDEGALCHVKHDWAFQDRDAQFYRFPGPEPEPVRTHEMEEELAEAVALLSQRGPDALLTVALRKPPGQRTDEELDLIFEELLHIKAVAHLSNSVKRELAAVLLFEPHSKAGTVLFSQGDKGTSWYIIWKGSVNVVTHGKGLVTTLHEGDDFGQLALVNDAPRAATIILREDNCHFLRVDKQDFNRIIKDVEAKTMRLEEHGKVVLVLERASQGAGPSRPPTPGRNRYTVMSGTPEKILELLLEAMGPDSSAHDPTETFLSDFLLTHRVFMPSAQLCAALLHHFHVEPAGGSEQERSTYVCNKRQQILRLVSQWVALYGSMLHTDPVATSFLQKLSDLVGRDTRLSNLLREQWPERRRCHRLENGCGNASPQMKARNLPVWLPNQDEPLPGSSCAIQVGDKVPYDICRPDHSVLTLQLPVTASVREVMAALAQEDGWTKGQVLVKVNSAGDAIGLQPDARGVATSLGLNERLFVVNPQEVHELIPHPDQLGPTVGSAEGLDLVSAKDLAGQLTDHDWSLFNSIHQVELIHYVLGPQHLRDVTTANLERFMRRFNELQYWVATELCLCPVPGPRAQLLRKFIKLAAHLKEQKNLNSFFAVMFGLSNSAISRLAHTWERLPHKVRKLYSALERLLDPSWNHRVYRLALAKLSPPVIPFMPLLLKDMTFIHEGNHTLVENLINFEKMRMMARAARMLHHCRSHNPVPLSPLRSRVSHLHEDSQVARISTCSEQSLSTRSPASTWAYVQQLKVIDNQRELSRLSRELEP
Records with an inconclusive call do not appear. Calls of active or inactive are those of the source. Calls come from the whole dose curve; as a rule, active = well fitted inhibition curve with a large enough effect; inconclusive = small, poorly fitted or top-dose-only effect; inactive = no such curve, though single readings can be large or run the other way.
measuredParameter: activity change, negative = inhibition

Worked set:
compound: Cc1ccc(N2C(=O)c3cccc4c(N)ccc(c34)C2=O)c2cccnc12
activity change, negative = inhibition: inactive

compound: CCOC(=O)c1c(-c2ccccc2)oc2ccc(OCC)cc12
activity change, negative = inhibition: inactive

compound: CCCCn1nnnc1C(c1cc2ccccc2o1)N1CCCCC1 (stereo unspecified)
activity change, negative = inhibition: inactive

compound: COc1ccccc1OCCOc1ccc(/C=C2\C(=N)N3N=C(S(C)(=O)=O)SC3=NC2=O)cc1
activity change, negative = inhibition: inactive

compound: C=CCOc1ccc(C2N3CC4(CC)CN2CC(CC)(C3)C4=O)cc1 (stereo unspecified)
activity change, negative = inhibition: -3.19% [at 30.8 µM] (inactive)

compound: O=C(c1ccccc1Br)N(Cc1ccco1)Cc1ccco1
activity change, negative = inhibition: inactive

Shift focus to the following entry.
# value lookup — system Rap guanine nucleotide exchange factor 3 (Homo sapiens) (UniProt O95398), readout activity change, negative = inhibition, item C=Cc1ccc(CC2(C)C(=O)Nc3ccc(Cl)cc32)cc1 (stereo unspecified)
-14.8% [at 30.8 µM] (inactive)

----------
Listing: activity change, negative = inhibition of selected compounds
molecular target: Guanidinoacetate N-methyltransferase (Homo sapiens) (UniProt Q14353); test: Confirmatory Screen for Target Class Profiling of Small Molecule Inhibitors of Methyltransferases (AID 1745852); conditions: MTase-Glo luminescence, SAH detection, recombinant enzyme; at 57.3 µM (top of the series) unless noted; also: % is scaled to controls: 0 for no effect and ±100 for the full control effect

compound: CC(C)c1nccn1CCCNC(=O)c1ccc(N2CCCC(CO)C2)nc1 (stereo unspecified)
activity change, negative = inhibition: 1.26%

# value lookup — system Guanidinoacetate N-methyltransferase (Homo sapiens) (UniProt Q14353), readout activity change, negative = inhibition, item COc1cccc(CN2C(=O)c3nc4ccccc4n3CC2(C)C(=O)NC2CCC(C)CC2)c1 (stereo unspecified)
0.902%

Ok, now CCCC1c2cccn2CCN1C(=O)NC1(CC(=O)OCC)CCCCC1 (stereo unspecified)
-0.613%

Ok, now c1ccc(-c2cc3c(cn2)NCCN(CC2CC2)C3)cc1
7.08% [at 114 µM]

Ok, now COc1cccc(Nc2ccnc(-c3nnc(C)n3C3CCCCC3)c2)c1
17.8% [at 85.7 µM]

Ok, now CCCC1c2cccn2CCN1C(=O)Nc1ccccc1C(F)(F)F (stereo unspecified)
-8.26%

Ok, now Cc1nccn1CCC1CCN(c2nccc(-c3ccccn3)n2)CC1
8.46%

Ok, now COc1ccc(CCNC(=O)CCc2nnc3n(CC(C)C)c(=O)c4ccccc4n23)cc1OC
-2.85%

Ok, now COc1cccc(NC(=O)Cn2c(=O)oc3cc(S(=O)(=O)N4CCCC4)ccc32)c1
0.138%

Ok, now Cc1nn(C(=O)CCC(=O)N2CCC(Cc3nncn3CC3CC3)CC2)c2ccccc12
3.09%

Ok, now CCNc1nccc(N2CCC(CC(=O)NCC(C)C)CC2)n1
-5.08%

----------
assay: Dual reporter qHTS for agonist of Pregnane X Receptor (hPXR) against the NCATS DSHEA and TCM libraries: Fluorescence readout (AID 1920058); conditions: PXR dual reporter cells; series mostly up to 40 µM; also: 0% is about no effect
Activity calls are given as the source filed them. Calls come from the whole dose curve; as a rule, active = well fitted curve in the direction sought with a large enough effect; inconclusive = small, poorly fitted or top-dose-only effect, or another doubt; inactive = no such curve, though single readings can be large or run the other way.
measuredParameter: activation

Worked set:
compound: CCCCCCCCCCCCCC(=O)O
measuredParameter: activation
result: inactive

compound: O=C(/C=C/c1ccc(O)c(O)c1)OC1[C@H](O)CC(O)(C(=O)O)C[C@@H]1O (some centres undefined)
measuredParameter: activation
result: inactive

compound: CC[C@H](CC[C@@H](C)[C@H]1CCC2C3CCC4C[C@@H](O)CC[C@]4(C)C3CC[C@@]21C)C(C)C (some centres undefined)
measuredParameter: activation
result: inactive

compound: CC(C)=CCCC(C)(OC1OC(COC2OC(CO)C(O)C2O)C(O)C(O)C1O)C1CCC2(C)C1C(O)CC1C3(C)CCC(OC4OC(CO)C(O)C(O)C4OC4OC(CO)C(O)C(O)C4O)C(C)(C)C3CCC12C (centres undefined)
measuredParameter: activation
result: inactive

May I ask what activation has been recorded for O=C(/C=C/c1ccc(O)c2c1[C@H](C(=O)O)[C@@H](c1ccc(O)c(O)c1)O2)O[C@H](Cc1ccc(O)c(O)c1)C(=O)O ?
inactive

Ok, now CCCCCCCCCCCC(=O)O
inactive

Ok, now CN(CC(=O)O)C(=N)N
inactive

Ok, now CCCCCCCCC[C@@H](O)CC(=O)CCc1ccc(O)c(OC)c1
inactive

Ok, now C=C(C)C(CC=C(C)C)CC12CC(CC=C(C)C)C(C)(C)C(CC=C(C)C)(C(=O)/C(=C(\O)c3ccc(O)c(O)c3)C1=O)C2=O (centres undefined)
inactive

----------
molecular target: Rap guanine nucleotide exchange factor 3 (Homo sapiens) (UniProt O95398); assay: Counterscreen qHTS for antagonist of cAMP-regulated guanine nucleotide exchange factor 3 (EPAC1) (AID 1645888); details: Rap1B-BODIPY-GDP nucleotide exchange, fluorescence; series mostly up to 154 µM;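 also: fluorescence loss as bound BODIPY-GDP is released from Rap1B; % of control where 0% means no effect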
Results filed as inconclusive are left out. Active and inactive are the calls of the source. Calls come from the whole dose curve; as a rule, active = well fitted inhibition curve with a large enough effect; inconclusive = small, poorly fitted or top-dose-only effect; inactive = no such curve, though single readings can be large or run the other way.
measuredParameter: activity change, negative = inhibition

Worked set:
molecule: Cc1ccc2sc(N(CCCN(C)C)C(=O)c3nc4ccccc4s3)nc2c1C
measuredParameter: activity change, negative = inhibition
result: inactive
--
molecule: Cc1ccc(OCC(=O)Nc2ccc(C)c(S(=O)(=O)N3CCCCCC3)c2)c([N+](=O)[O-])n1
measuredParameter: activity change, negative = inhibition
result: inactive
--
molecule: O=C1C(Cl)=C(NCCc2ccccc2)C(=O)c2ccccc21
measuredParameter: activity change, negative = inhibition
result: inactive
--
molecule: CC(=O)Nc1sc(/C(C#N)=C\c2cccc(Cl)c2)nc1-c1ccc(C)cc1
measuredParameter: activity change, negative = inhibition
result: 148% [at 30.8 µM] (inactive)
--
molecule: O=C1c2ccccc2C(Nc2cccnc2)N1Cc1ccccc1Cl (stereo not drawn)
measuredParameter: activity change, negative = inhibition
result: inactive
--
molecule: Cc1cccc(S(=O)(=O)NC(=O)C2(C)CCN2C(=O)Cc2cc(F)ccc2F)c1 (stereo not drawn)
measuredParameter: activity change, negative = inhibition
result: 9.86% [at 30.8 µM] (inactive)
--
molecule: O=C(CSc1nc(-c2ccc(F)cc2)nc2ccc(F)cc12)Nc1cccc(C(=O)O)c1
measuredParameter: activity change, negative = inhibition
result: inactive
--
molecule: Cc1ccc(-c2nc(S(=O)(=O)c3ccc(C)cc3)c(N3CCOCC3)o2)cc1
measuredParameter: activity change, negative = inhibition
result: inactive
--
molecule: O=[N+]([O-])c1cc(/C=N/O)ccc1Oc1ccccc1Cl
measuredParameter: activity change, negative = inhibition
result: inactive
--
molecule: Clc1cccc(Cc2c(-c3ccco3)nc3ccc(Br)cn23)c1
measuredParameter: activity change, negative = inhibition
result: -13.4% [at 30.8 µM] (inactive)

May I ask what activity change, negative = inhibition has been recorded for COCCN1C(=O)/C(=C/c2ccc(N3CCCC3)cc2)SC1=S ?
inactive

Ok, now CC1(C(=O)NS(=O)(=O)c2ccc(Cl)cc2)CCN1C(=O)C1(c2ccccc2)CCCC1 (stereo not drawn)
inactive

Ok, now Cn1cccc1/C=C1\CCC/C(=C\c2cccn2C)C1=O
inactive

Ok, now COc1ccc(C(=O)NC2(C(F)(F)F)NC(=O)N(CCCc3ccccc3)C2=O)c(OC)c1OC (stereo not drawn)
-10.8% [at 30.8 µM] (inactive)

Ok, now O=C(NCc1ccc(F)cc1)C(c1cccnc1)N(C(=O)c1csnn1)c1ccccc1 (stereo not drawn)
-0.606% [at 30.8 µM] (inactive)

Ok, now CCN(CC(=O)Nc1ccccc1C(=O)NC1CC1)Cc1cccs1
inactive

Ok, now N=C1/C(=C\c2ccc(-c3cccc(C(=O)O)c3)o2)C(=O)N=C2SC=C(c3ccccc3)N12
inactive

Ok, now COc1ccc(OCC(=O)OCCNC(=O)c2cccnc2)cc1
-8.99% [at 30.8 µM] (inactive)

Ok, now COc1ccccc1N1CSC2=C(C#N)C(c3ccc(SC)cc3)CC(=O)N2C1 (stereo not drawn)
-2.77% [at 30.8 µM] (inactive)

Ok, now Cc1ccc(NC(=O)CN2C(=O)S/C(=C/c3ccc(O)c([N+](=O)[O-])c3)C2=O)cc1C
inactive

Ok, now Clc1ccc(CON/C=N/c2ncnc3sccc23)cc1
-10% [at 30.8 µM] (inactive)

Ok, now CCOc1ccccc1Oc1nc(C)nc2c1oc1ccccc12
inactive

Ok, now COC(=O)c1cc2ccccc2n1S(=O)(=O)c1ccccc1
inactive

Ok, now CCOc1ccccc1NC(=O)CSc1nccn1-c1cccc(C)c1
inactive

Ok, now CCC(C)Cn1c(COc2ccc(OC)cc2)nc2ccccc21 (stereo not drawn)
inactive

Ok, now C=CCn1c(=NC(=O)c2sc3ccccc3c2Cl)sc2cc(S(N)(=O)=O)ccc21
inactive

Ok, now Cc1ccc(O)c(-c2n[nH]c3c2C(c2ccccc2F)N(Cc2ccco2)C3=O)c1 (stereo not drawn)
inactive
